Data origin: patent US20190263804A1

pKd: −log10 of the molar value.
These records show pKd for PIK3Cα_h (Homo sapiens).
parameter.measured: pKd

Cc1c(Cn2c(CN3CC(O)C3)nc3cnc(N4CCOCC4)cc32)cccc1C(F)(F)F [Compound 7]
5.66
Cc1c(Cn2c(CN3CCS(=O)(=O)CC3)nc3cnc(N4CCOCC4)cc32)cccc1C(F)(F)F [Compound 8]
4.96
Cc1nc2cnc(N3CCOCC3)cc2n1Cc1cccc2c1CN(CCO)CC2 [Compound 11]
5.06
Cc1cccc(Cn2c(C)nc3c(N)nc(N4CCOCC4)cc32)c1C [Compound 17]
5.08
Cc1c(Cn2c(CN3CC4(CC(O)C4)C3)nc3cnc(N4CCOCC4)cc32)cccc1C(F)(F)F [Compound 3]
5.80
Cc1c(Cn2c(CO)nc3cnc(N4CCOCC4)cc32)cccc1C(F)(F)F [Compound 6]
5.55

###

test.system: UniProt O00329
Sequence (O00329 1-1044): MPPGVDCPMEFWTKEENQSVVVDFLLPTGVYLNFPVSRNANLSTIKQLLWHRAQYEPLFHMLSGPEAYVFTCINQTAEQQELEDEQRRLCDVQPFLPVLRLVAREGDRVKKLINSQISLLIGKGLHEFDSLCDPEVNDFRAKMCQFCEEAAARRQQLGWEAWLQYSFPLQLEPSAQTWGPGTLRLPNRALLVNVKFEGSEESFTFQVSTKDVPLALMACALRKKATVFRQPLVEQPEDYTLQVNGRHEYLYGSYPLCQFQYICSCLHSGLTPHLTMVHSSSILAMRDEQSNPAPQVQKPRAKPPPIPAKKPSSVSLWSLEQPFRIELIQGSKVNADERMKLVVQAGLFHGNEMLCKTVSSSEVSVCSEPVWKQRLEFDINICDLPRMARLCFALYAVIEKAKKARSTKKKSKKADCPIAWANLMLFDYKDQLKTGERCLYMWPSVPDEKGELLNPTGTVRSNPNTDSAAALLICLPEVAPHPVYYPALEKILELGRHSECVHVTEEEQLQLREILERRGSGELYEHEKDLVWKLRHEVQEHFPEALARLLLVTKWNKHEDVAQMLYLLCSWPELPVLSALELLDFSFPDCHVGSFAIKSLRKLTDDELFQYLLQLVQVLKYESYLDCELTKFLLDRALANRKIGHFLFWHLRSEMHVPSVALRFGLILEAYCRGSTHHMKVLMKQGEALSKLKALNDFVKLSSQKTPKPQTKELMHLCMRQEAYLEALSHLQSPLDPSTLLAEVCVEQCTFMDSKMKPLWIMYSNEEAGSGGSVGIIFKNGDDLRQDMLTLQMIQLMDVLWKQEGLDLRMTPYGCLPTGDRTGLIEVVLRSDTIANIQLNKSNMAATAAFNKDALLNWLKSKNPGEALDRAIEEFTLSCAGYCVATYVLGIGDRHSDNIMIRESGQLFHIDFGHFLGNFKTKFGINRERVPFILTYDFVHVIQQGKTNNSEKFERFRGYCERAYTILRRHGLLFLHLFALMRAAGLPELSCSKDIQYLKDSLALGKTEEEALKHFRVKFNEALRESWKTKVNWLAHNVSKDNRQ
parameter.measured: Kd (nM)

Cc1nc2cnc(N3CCOCC3)cc2n1Cc1cccc2c1CN(C)CC2
4200
Cc1c(Cn2c(CN3CCS(=O)(=O)CC3)nc3cnc(N4CCOCC4)cc32)cccc1C(F)(F)F
2600
Cc1cccc(Cn2c(C)nc3c(N)nc(N4CCOCC4)cc32)c1C
1500
Cc1c(Cn2c(CO)nc3cnc(N4CCOCC4)cc32)cccc1C(F)(F)F
800
Cc1cccc(Cn2c(C)nc3c(N)nc(C4=CCOCC4)cc32)c1C
700
Cc1c(Cn2c(C)nc3cnc(C4=CCOCC4)cc32)cccc1C(F)(F)F
1300
Cc1c(Cn2c(CN3CC(O)C3)nc3cnc(N4CCOCC4)cc32)cccc1C(F)(F)F
1100
